systemUnderTest: human V1a receptor (Homo sapiens, UniProt P37288)
Sequence (P37288 whole entry): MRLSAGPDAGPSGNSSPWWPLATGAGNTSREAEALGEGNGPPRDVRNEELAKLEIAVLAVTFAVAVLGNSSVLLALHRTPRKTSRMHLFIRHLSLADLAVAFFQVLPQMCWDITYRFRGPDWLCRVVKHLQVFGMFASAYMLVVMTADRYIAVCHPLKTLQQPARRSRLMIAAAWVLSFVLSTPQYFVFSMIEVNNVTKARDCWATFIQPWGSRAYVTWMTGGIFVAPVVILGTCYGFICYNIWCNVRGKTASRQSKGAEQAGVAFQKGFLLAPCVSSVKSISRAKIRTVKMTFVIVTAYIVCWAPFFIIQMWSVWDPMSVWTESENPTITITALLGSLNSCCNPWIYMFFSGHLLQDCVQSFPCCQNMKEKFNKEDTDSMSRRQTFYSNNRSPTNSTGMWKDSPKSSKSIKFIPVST
assayExplanation: Cellular in vitro assay for determining vasopressin receptor activity, V1a receptor cell line (CHO, aequorin luminescence)
protocolConditions: CHO cell line transfected with human V1a receptor; [Arg]-vasopressin at EC50 concentration; read-out: IC50 hV1a
pIC50: −log10 of the molar value.
recordedEndpoint: pIC50

compound: NC(CNC(=O)c1cccc(Cl)c1-n1cnc(Cn2nc(-c3ccc(Cl)cc3)n(C[C@@H](O)C(F)(F)F)c2=O)n1)C(F)(F)F (mixture of isomers)
systemUnderTest: human V1a receptor (Homo sapiens, UniProt P37288)
recordedEndpoint: pIC50
numericValue: 6.40
//
compound: CC(C)=CCNC(=O)c1ccccc1-n1cnc(Cn2nc(-c3ccc(Cl)cc3)n(C[C@H](O)C(F)(F)F)c2=O)n1
systemUnderTest: human V1a receptor (Homo sapiens, UniProt P37288)
recordedEndpoint: pIC50
numericValue: 8.19
//
compound: O=C(Nc1ccc(Cl)nc1)c1ccccc1-n1cnc(Cn2nc(-c3ccc(Cl)cc3)n(C[C@H](O)C(F)(F)F)c2=O)n1
systemUnderTest: human V1a receptor (Homo sapiens, UniProt P37288)
recordedEndpoint: pIC50
numericValue: 8.89
//
compound: O=C(c1ncccc1-n1cnc(Cn2nc(-c3ccc(Cl)cc3)n(C[C@H](O)C(F)(F)F)c2=O)n1)N1CCC(O)(C(F)(F)F)C1 (mixture of isomers)
systemUnderTest: human V1a receptor (Homo sapiens, UniProt P37288)
recordedEndpoint: pIC50
numericValue: 6.72
//
compound: O=C(Nc1ccncc1-n1cnc(Cn2nc(-c3ccc(Cl)cc3)n(C[C@H](O)C(F)(F)F)c2=O)n1)C1CC1(F)F (mixture of isomers)
systemUnderTest: human V1a receptor (Homo sapiens, UniProt P37288)
recordedEndpoint: pIC50
numericValue: 7.78
//
compound: O=C(NCC(F)(F)F)c1cccc(Cl)c1-n1cnc(Cn2nc(-c3ccc(Cl)cc3)n(C[C@@H](O)C(F)(F)F)c2=O)n1
systemUnderTest: human V1a receptor (Homo sapiens, UniProt P37288)
recordedEndpoint: pIC50
numericValue: 6.71
//
compound: O=C(c1ccccc1-n1cnc(Cn2nc(-c3ccc(Cl)cc3)n(C[C@H](O)C(F)(F)F)c2=O)n1)N1CCCCO1
systemUnderTest: human V1a receptor (Homo sapiens, UniProt P37288)
recordedEndpoint: pIC50
numericValue: 8.80
//
compound: CC(C)CNC(=O)c1ccccc1-n1cnc(Cn2nc(-c3ccc(Cl)cc3)n(C[C@H](O)C(F)(F)F)c2=O)n1
systemUnderTest: human V1a receptor (Homo sapiens, UniProt P37288)
recordedEndpoint: pIC50
numericValue: 8.81
//
compound: O=C(Nc1ccc(F)cn1)c1ccccc1-n1cnc(Cn2nc(-c3ccc(Cl)cc3)n(C[C@H](O)C(F)(F)F)c2=O)n1
systemUnderTest: human V1a receptor (Homo sapiens, UniProt P37288)
recordedEndpoint: pIC50
numericValue: 8.18
//
compound: COC[C@@H]1CCCN1C(=O)c1cccc(C(F)(F)F)c1-n1cnc(Cn2nc(-c3ccc(Cl)cc3)n(C[C@H](O)C(F)(F)F)c2=O)n1
systemUnderTest: human V1a receptor (Homo sapiens, UniProt P37288)
recordedEndpoint: pIC50
numericValue: 7.40
//
compound: O=C(Nc1ccncn1)c1ccccc1-n1cnc(Cn2nc(-c3ccc(Cl)cc3)n(C[C@H](O)C(F)(F)F)c2=O)n1
systemUnderTest: human V1a receptor (Homo sapiens, UniProt P37288)
recordedEndpoint: pIC50
numericValue: 8.22
//
compound: O=C(Nc1cccnc1-n1cnc(Cn2nc(-c3ccc(Cl)cc3)n(C[C@H](O)C(F)(F)F)c2=O)n1)C1CC1
systemUnderTest: human V1a receptor (Homo sapiens, UniProt P37288)
recordedEndpoint: pIC50
numericValue: 8.37
